assay: Cmax in athymic CD-1 nude mouse at 10 mg/kg, po by LC-MS/MS analysis; assay type: ADME, organism-based; parameters: dose 10 mg/kg, route oral; conditions: in vivo
Criterion: Cmax strictly under 2000 ng/mL. Met: class 1. Not met: class 0.

Ask: Hello, is Cmax of the following molecule strictly smaller than 2000 ng/mL? Cc1cc(-c2cnn3c(NCC4CCOCC4)nc(Oc4ccccc4)nc23)ccc1C(=O)NC1CC1
Reply: class 1

Ask: Determine if Cc1cc(-c2cnn3c(NC[C@H]4CC[C@H](O)CC4)cc(Oc4cccnc4)nc23)ccc1C(=O)NC1CC1 shows Cmax strictly lower than 2000 ng/mL.
Reply: class 1

Ask: I'd appreciate it if you could check whether Cc1cc(-c2cnn3c(NCCN4CCOCC4)cc(Oc4ccccc4)nc23)ccc1C(=O)NC1CC1 has Cmax smaller than 2000 ng/mL.
Reply: class 1

Ask: Here's an entry: Cc1cc(-c2cnn3c(NCC4CCOCC4)cc(N[C@H]4CCC[C@H]4O)nc23)ccc1C(=O)NC1CC1 . Is its Cmax below 2000 ng/mL?
Reply: class 1

Ask: Given Cc1cc(-c2cnn3c(NCC4CC4)cc(NC4CCCC[C@H]4O)nc23)ccc1C(=O)NC1CC1 (single isomer, unassigned) , is recorded Cmax strictly lower than 2000 ng/mL?
Reply: class 1

Ask: Answer whether the molecule Cc1cc(-c2cnn3c(NC[C@H]4C[C@@](C)(O)C4)cc(Oc4cccnc4)nc23)ccc1C(=O)NC1CC1 has Cmax strictly less than 2000 ng/mL
Reply: class 0

Ask: Please check: Cmax for Cc1cc(-c2cnn3c(NC[C@H]4CC[C@@H](O)CC4)cc(Oc4cccnc4)nc23)ccc1C(=O)NC1CC1 , strictly under 2000 ng/mL or not?
Reply: class 1

Ask: Answer whether the molecule Cc1cc(-c2cnn3c(NCC4CCOCC4)cc(N[C@H]4CCCC[C@H]4O)nc23)ccc1C(=O)NC1CC1 has Cmax strictly less than 2000 ng/mL
Reply: class 0

Ask: Is 2000 ng/mL strictly greater than the molecule's reported Cmax? molecule: Cc1cc(-c2cnn3c(NC[C@H]4C[C@@](C)(O)C4)cc(NC4CCCC4)nc23)ccc1C(=O)NC1CC1
Reply: class 0

Ask: Input Cc1cc(-c2cnn3c(NCC4CCOCC4)cc(Oc4ccccc4)nc23)ccc1C(=O)NC1CC1 ; condition: Cmax strictly below 2000 ng/mL. Does it hold?
Reply: class 1

Ask: Confirm or reject: Cmax of Cc1cc(-c2cnn3c(NC[C@H]4C[C@H](O)C4)cc(NC4CCCC4)nc23)ccc1C(=O)NC1CC1 lies strictly below 2000 ng/mL
Reply: class 1

Ask: Lab log: compare recorded Cmax with 2000 ng/mL; is it strictly lower for Cc1cc(-c2cnn3c(NCC4CCOCC4)cc(NC4CCCC4)nc23)ccc1C(=O)NC1CC1 ?
Reply: class 0
